// growth lookup, one value per entry
- Tested on: HT29 colon
- assay.procedure: NCI-60 one-dose screen, 48 h (100 = growth as untreated, 0 = no growth, -100 = all killed)
- test.conditions: 10 µM unless noted
This is part of a sample that, as a whole, favours compounds with a hit. Of some 83,000 tested, about 20% had one in any assay.
State just the number; it will be interpreted in %.

Please review the following examples before continuing.
Cc1ccc(NC(=O)c2sc3nc4c(cc3c2N)C(=O)CCC4)cc1C = 9.71
NS(=O)(=O)c1ccc(Nc2nc3n[nH]c(Nc4ccccc4)c3c(=O)[nH]2)cc1 = 101
COc1ccc(CCN2CC=Cn3c2nc2ccccc2c3=O)cc1 = 12.9
CCCCCCCCCCCCCCCCCCNC(=O)[C@H]1CSC(c2ccc(F)c(OC)c2)N1 (stereo partly drawn) = -84.5
COc1ccc(-c2cc(NC(=O)Nc3ccc(O)cc3)no2)cc1 = 98.8
COc1ccc2nc3cc(Cl)ccc3c(N3CCN(c4nccc(NCc5ccccc5)n4)CC3)c2c1 = 52.7
CCN(CC)CCC(=O)c1ccc(OC)c2ccccc12 = 109
CCCCCCCCCCCCS(=O)CC(C)O (stereo not drawn) = 110

Q: Give HT29 colon growth for "Cc1csc2ccc(Cl)cc12"
Ans: 102

Q: What would you report for O=C(NC(Cc1ccccc1)C(=O)CCl)OCc1ccccc1 (stereo not drawn) ?
Ans: 53.6

Q: What about "Oc1ccccc1/C=N/Nc1ccc2ccccc2n1" ?
Ans: 48.9

----------
Measured growth, listed per entry.
- System: DU-145 prostate
- assay.procedure: NCI-60 one-dose screen, 48 h (100 = growth as untreated, 0 = no growth, -100 = all killed)
- test.conditions: 10 µM unless noted
- Experimental: Cells are grown in 96 well plates and exposed to the test compound for 48 hours. Compounds are tested at a single concentration, which is 10^-5 M for most compounds. The reported endpoint is percent growth (GI% or GIPRCNT), where numbers from 0 - 100% represent growth inhibition, and numbers from -100% - 0 represent cell death. For example, a value of 40 represents 60% growth inhibition. A value of 0 means no net growth occurred over the course of the experiment. […]
Compounds without any hit were thinned out: in the full panel of roughly 83,000, 20% have a hit.
The reply should be a number in %, with the unit left off.

ClC1=C2NC=NC2n2c(nnc2-c2ccc(Cl)cc2)N1 (centres undefined) = 112
CC(C)(C)n1cc(-c2ccnc(NCCNS(=O)(=O)c3ccccc3)c2)c(-c2cccc(O)c2)n1 = 68.9
O=C(Nc1cccc2[nH]c(C(F)(F)F)nc12)c1ccc(Br)cc1F = 46.8
COc1ccc(C2CC(=O)Nc3c2c(C)nn3-c2nc3ccccc3[nH]2)cc1 (centres undefined) = 89.1
CCOC(=O)CC(=O)c1c(C)cc(C)cc1C = 110

Q: Which growth value is on record for "CC/C(Cc1ccccc1)=C(/c1ccc(O)cc1)c1ccc(OCCN2CCCC2)cc1" ?
Ans: -18.6

Q: Moving on to the next compound: "COc1cnc2c(c1)C(=O)c1c-2n(CCCN2CCN(C)CC2)c(=O)c2cc([N+](=O)[O-])ccc12"
Ans: -42.5

Q: Can you check "COc1ccc(-c2cc(-c3ccc(N(C)C)cc3)nc(NC(=O)c3ccncc3)n2)cc1" next?
Ans: 102

Q: Moving on to the next compound: "COc1cc(/C=C2\CN(C(=O)CCN3CCC(=NO)CC3)C/C(=C\c3cc(OC)c(OC)c(OC)c3)C2=O)cc(OC)c1OC"
Ans: -94

Where do these numbers come from? They come from PubChem BioAssay (NCI).
